Where do the numbers come from? From ChEMBL document CHEMBL4428066.

Assay: Plasma clearance in cynomolgus monkey at 2 mg/kg, iv through bolus administration after 0.167 to 48 hrs by LC/MS/MS analysis
Format: ADME, organism-based, Macaca fascicularis
parameter_measured: clearance (mL/min/kg)
Give just the number in mL/min/kg; leave the unit off.

**Query** For the compound Cc1c(-c2ccc(C(N)=O)c3[nH]c4cc(C(C)(C)O)ccc4c23)cccc1-n1cnc2ccccc2c1=O , give its reported clearance.
**Result** 2.1

* * *

Biological target: Tyrosine-protein kinase BTK (Homo sapiens)
Sequence (Q06187 whole entry): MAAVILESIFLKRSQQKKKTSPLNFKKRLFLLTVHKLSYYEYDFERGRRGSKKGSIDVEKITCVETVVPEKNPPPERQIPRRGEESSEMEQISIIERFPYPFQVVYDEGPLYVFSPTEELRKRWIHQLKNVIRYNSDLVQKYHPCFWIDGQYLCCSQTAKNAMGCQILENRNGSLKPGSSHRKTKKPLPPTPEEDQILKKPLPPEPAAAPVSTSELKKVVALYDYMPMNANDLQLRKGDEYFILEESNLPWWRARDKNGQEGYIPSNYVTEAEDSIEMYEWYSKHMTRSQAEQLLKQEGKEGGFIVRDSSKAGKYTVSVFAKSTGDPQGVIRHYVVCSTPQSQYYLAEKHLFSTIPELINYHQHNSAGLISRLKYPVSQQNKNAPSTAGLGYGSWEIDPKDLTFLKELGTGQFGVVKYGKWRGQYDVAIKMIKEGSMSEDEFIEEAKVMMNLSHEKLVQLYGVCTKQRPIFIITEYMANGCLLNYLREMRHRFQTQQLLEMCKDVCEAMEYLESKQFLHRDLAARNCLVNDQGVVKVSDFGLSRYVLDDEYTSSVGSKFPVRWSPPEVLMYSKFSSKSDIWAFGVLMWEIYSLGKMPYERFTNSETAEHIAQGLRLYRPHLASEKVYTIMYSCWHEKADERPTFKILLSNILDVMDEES
Experiment: Inhibition of His-tagged full length human recombinant BTK expressed in baculovirus using fluoresceinated peptide substrate after 60 mins by fluorescent electrophoretic separation
Give pIC50 for every item shown.
# log scale: pIC50 equals minus log10 of the concentration in mol/L

**Query** Given Cc1c(NC(=O)c2ccc(F)cc2)cccc1-c1ccc(C(N)=O)c2[nH]c3cc(NC(C)C)ccc3c12 , report its pIC50 on Tyrosine-protein kinase BTK (Homo sapiens).
**Result** 7.96

**Query** Give measured pIC50 for Cc1c(-c2ccc(C(N)=O)c3[nH]c4cc(C(C)(C)O)ccc4c23)cccc1-n1cnc2cc(F)ccc2c1=O (Tyrosine-protein kinase BTK (Homo sapiens)).
**Result** 8.70

**Query** Report pIC50 under test system Tyrosine-protein kinase BTK (Homo sapiens) for Cc1c(-c2ccc(C(N)=O)c3[nH]c4cc(C(C)(C)O)ccc4c23)cccc1N1Cc2ccccc2C1=O .
**Result** 8.30

**Query** Name the value of pIC50 reported for Cc1c(-c2ccc(C(N)=O)c3[nH]c4cc(C(C)(C)O)ccc4c23)cccc1N1CCc2ccccc2C1=O when tested on Tyrosine-protein kinase BTK (Homo sapiens).
**Result** 8.52

**Query** Write pIC50 of Cc1c(NC(=O)c2ccc(F)cn2)cccc1-c1ccc(C(N)=O)c2[nH]c3cc(C(=O)N4CCN(C)CC4)ccc3c12 ; system used: Tyrosine-protein kinase BTK (Homo sapiens)
**Result** 8.05
